- target_under_test: hDHFR (human DHFR) (Homo sapiens)
- Construct: made in house; host or cells: Escherichia coli chi2913
- Sequence (P00374 1-187): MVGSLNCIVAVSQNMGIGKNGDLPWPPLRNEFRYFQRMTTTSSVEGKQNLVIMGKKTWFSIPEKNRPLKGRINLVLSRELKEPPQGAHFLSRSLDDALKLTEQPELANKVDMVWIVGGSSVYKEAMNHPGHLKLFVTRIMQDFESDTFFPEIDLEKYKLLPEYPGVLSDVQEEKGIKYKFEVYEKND
- method_summary: Enzymatic inhibition assay (Ki), human DHFR
- Format: biochemical
Threshold rule: SSI hTS vs hDHFR greater than or equal to 1 is criterion met; below that, criterion not met.

Cc1cc(O)c(C(C)C)cc1C1(c2cc(C(C)C)c(O)cc2C)OC(=O)c2c1ccc1ccccc21
criterion met

Query: Reported SSI hTS vs hDHFR at or above 1? O=C1OC(c2ccc(O)c(Br)c2)(c2ccc(O)c(Br)c2)c2ccc3ccccc3c21
Reply: criterion not met

Query: Textbook exercise: given the entry O=C1OC(c2ccc(O)c(I)c2)(c2ccc(O)c(I)c2)c2ccc3ccccc3c21 , state whether its SSI hTS vs hDHFR is greater than or equal to 1.
Reply: criterion not met

Query: Assess whether reported SSI hTS vs hDHFR for O=C1OC(c2cc(Br)c(O)c(Br)c2)(c2cc(Br)c(O)c(Br)c2)c2ccc3ccccc3c21 sits at 1 or higher.
Reply: criterion not met

###

- target_under_test: hDHFR (human DHFR) (Homo sapiens, UniProt P00374)
- Sequence (P00374 1-187): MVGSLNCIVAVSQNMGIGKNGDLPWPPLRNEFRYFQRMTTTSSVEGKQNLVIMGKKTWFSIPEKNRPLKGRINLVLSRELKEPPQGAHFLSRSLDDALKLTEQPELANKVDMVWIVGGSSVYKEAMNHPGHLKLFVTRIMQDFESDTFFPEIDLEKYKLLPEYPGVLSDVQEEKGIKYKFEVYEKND
observable: pKi
One number for each entry, as −log10 of the molar value.

O=C1OC(c2ccc(O)c(I)c2)(c2ccc(O)c(I)c2)c2ccc3ccccc3c21
5.41
O=C1OC(c2ccc(O)c(F)c2)(c2ccc(O)c(F)c2)c2ccc3ccccc3c21
3.96
O=C1OC(c2cc(Br)c(O)c(Br)c2)(c2cc(Br)c(O)c(Br)c2)c2ccc3ccccc3c21
4.16

Kindly consider the entry below.
Query: Quickly give me recorded pKi for O=C1OC(c2ccc(O)c(Br)c2)(c2ccc(O)c(Br)c2)c2ccc3ccccc3c21
Reply: 4.48

###

Target or system CnTS (Cryptococcus neoformans): recorded Ki listed per item.
Numbers only, in µM.

O=C1OC(c2cc(Br)c(O)c(Br)c2)(c2cc(Br)c(O)c(Br)c2)c2ccc3ccccc3c21
13
O=C1OC(c2ccc(O)c(Cl)c2)(c2ccc(O)c(Cl)c2)c2ccc3ccccc3c21
8.1
O=C1OC(c2ccc(O)c(F)c2)(c2ccc(O)c(F)c2)c2ccc3ccccc3c21
3.5
O=C1OC(c2ccc(O)c(I)c2)(c2ccc(O)c(I)c2)c2ccc3ccccc3c21
4.5
O=C1OC(c2ccc(O)c(Br)c2)(c2ccc(O)c(Br)c2)c2ccc3ccccc3c21
2.7

Let's switch to this molecule now.
Query: In one line, give reported Ki of the entry Cc1cc(O)c(C(C)C)cc1C1(c2cc(C(C)C)c(O)cc2C)OC(=O)c2c1ccc1ccccc21 .
Reply: 0.6
